# maps each entry to its pIC50
Tested on: NCI-H460
Run Description: Cytostatic activity against human NCI-H460 cells after 72 hrs by MTT assay
Assay type: functional, cell-based
Test Settings: NCI-H460, 72 h
The value called pIC50 is obtained by taking minus log10 of the concentration in mol/L.

Compound: CC(C(=O)NNC(=O)NCC1CCCCC1)c1cccc(Oc2ccccc2)c1 (configuration not stated)
System Name: NCI-H460
pIC50: 4.72

// sample CC(C)Cc1ccc(C(C)C(=O)NNC(=O)NCc2ccccc2)cc1 (configuration not stated) , its pIC50 was 4.23

// sample CC(C(=O)NNC(=O)NC1CCCC1)c1cccc(Cc2ccccc2)c1 (configuration not stated) , its pIC50 was 4.42

###

Test system: Mammalian orthoreovirus 1
Run Description: Antiviral activity against Reovirus-1 infected in african green monkey Vero cells assessed as inhibition of virus-induced cytopathic effect at 0.32 to 100 uM
Format: functional, organism-based
Active and inactive are the calls of the source. No cut-off for these calls is given here.
Parameter Measured: inhibition

Example results:
Compound: CC(C(=O)NNC(=O)NC1CCCC1)c1cccc(Cc2ccccc2)c1 (stereo not given)
inhibition: inactive
--
Compound: CC(C(=O)NNC(=O)NC1CCCCC1)c1cccc(Cc2ccccc2)c1 (stereo not given)
inhibition: inactive
--
Compound: CC(C)Cc1ccc(C(C)C(=O)NNC(=O)NNC(=O)NO)cc1 (stereo not given)
inhibition: inactive
--
Compound: CC(C)Cc1ccc(C(C)C(=O)NNC(=O)NNC(=O)NOCc2ccccc2)cc1 (stereo not given)
inhibition: inactive
--
Compound: CC(C)Cc1ccc(C(C)C(=O)NNC(=O)NC(c2ccccc2)c2ccccc2)cc1 (stereo not given)
inhibition: inactive
--
Compound: O=C(NNC(=O)n1nnc2ccccc21)NOCc1ccccc1
inhibition: inactive

Entry CC(C(=O)NNC(=O)NNC(=O)NOCc1ccccc1)c1cccc(Cc2ccccc2)c1 (stereo not given) , tested on Mammalian orthoreovirus 1, has a reported inhibition of inactive

Entry CC(C(=O)NNC(=O)NNC(=O)NOCc1ccccc1)c1cccc(Oc2ccccc2)c1 (stereo not given) , tested on Mammalian orthoreovirus 1, has a reported inhibition of inactive

###

Tested on: Glycine max
Run Description: Inhibition of soybean LOX assessed as conversion of sodium linoleate to 13- hydroperoxylinoleic acid at 100 uM
Calls of active or inactive are those of the source. The rule behind the calls is not given here.
Parameter Measured: inhibition

Example results:
Compound: CC(C(=O)NNC(=O)NC1CCCCC1)c1cccc(Oc2ccccc2)c1 (stereo unspecified)
System Name: Glycine max
Parameter Measured: inhibition
Result: 13%
//
Compound: O=C(NNC(=O)n1nnc2ccccc21)NOCc1ccccc1
System Name: Glycine max
Parameter Measured: inhibition
Result: inactive
//
Compound: CC(C(=O)NNC(=O)NNC(=O)NO)c1cccc(Cc2ccccc2)c1 (stereo unspecified)
System Name: Glycine max
Parameter Measured: inhibition
Result: 1%
//
Compound: CC(C(=O)NNC(=O)NCc1ccccc1)c1cccc(Oc2ccccc2)c1 (stereo unspecified)
System Name: Glycine max
Parameter Measured: inhibition
Result: 68%
//
Compound: CC(C)Cc1ccc(C(C)C(=O)NN)cc1 (stereo unspecified)
System Name: Glycine max
Parameter Measured: inhibition
Result: 8%
//
Compound: CC(C(=O)NNC(=O)NC(c1ccccc1)c1ccccc1)c1cccc(Oc2ccccc2)c1 (stereo unspecified)
System Name: Glycine max
Parameter Measured: inhibition
Result: 81%
//
Compound: CC(C(=O)NNC(=O)NCC1CCCCC1)c1cccc(Oc2ccccc2)c1 (stereo unspecified)
System Name: Glycine max
Parameter Measured: inhibition
Result: 12%
//
Compound: CC(C(=O)NNC(=O)NC1CCCC1)c1cccc(Cc2ccccc2)c1 (stereo unspecified)
System Name: Glycine max
Parameter Measured: inhibition
Result: inactive

// sample CC(C(=O)NNC(=O)NNC(=O)NO)c1cccc(Oc2ccccc2)c1 (stereo unspecified) , its inhibition was inactive

// sample CC(C)Cc1ccc(C(C)C(=O)NNC(=O)NO)cc1 (stereo unspecified) , its inhibition was 7%

// sample CC(C(=O)NNC(=O)NCCc1ccccc1)c1cccc(Oc2ccccc2)c1 (stereo unspecified) , its inhibition was 20%
